- Test system: CP265
- method description: qHTS profiling for inhibitors of Plasmodium falciparum proliferation (AID 504749); further: nearly all actives have a fitted effect of over 60% in size
- measurement parameters: P. falciparum in erythrocytes, SYBR Green DNA, 72 h; series mostly up to 28.7 µM
- Protocol: NIH National Institute of Allergy and Infectious Diseases [NIAID] NIH Chemical Genomics Center [NCGC] […] Because mature erythrocytes lack DNA, only Plasmodium-derived DNA is detected. NCGC Assay Protocol Summary: The SYBR Green viability assay was adapted from a method described previously (Plouffe et al., 2008). […] The following morning, fluorescence intensity at 485(14) nm excitation and 535(25) nm emission wavelengths was measured on an EnVision (Perkin Elmer) plate reader. […]
Records with an inconclusive call do not appear. Activity calls are given as the source filed them. The call rests on the fitted dose curve; in most records, active means well fitted inhibition curve with a large enough effect; inconclusive means small, poorly fitted or top-dose-only effect; inactive means flat fitted curve, though single readings scatter.
Outcome codes: active, inactive

- smiles representation: "CC(=O)Oc1cc(C(C)C)c(OCCN(C)C)cc1C"
  label: "inactive"
- smiles representation: "C#CCN(C)CCCOc1ccc(Cl)cc1Cl"
  label: "inactive"
- smiles representation: "CSc1ccc(C(=O)c2[nH]c(=O)[nH]c2C)cc1"
  label: "inactive"
- smiles representation: "Cc1nc2c([nH]1)c(=O)n(C)c(=O)n2Cc1ccco1"
  label: "inactive"
- smiles representation: "CC(=O)OCC1=C(C(=O)O)N2C(=O)[C@@H](NC(=O)Cc3cccs3)[C@H]2SC1"
  label: "inactive"
- smiles representation: "CCCC(C(=O)OCCN(CC)CC)(c1ccccc1)c1ccccc1"
  label: "active"
- smiles representation: "Cc1ccc(S(=O)(=O)NC(=O)NN2CCCCCC2)cc1"
  label: "inactive"
- smiles representation: "Nc1ncn([C@@H]2O[C@H](CO)[C@@H](O)[C@H]2O)c(=O)n1"
  label: "inactive"

Source: PubChem BioAssay (NCATS)
